System: Chenopodium album (CHEAL), common lambsquarters
Assay: Postemergence herbicide evaluation, growth of Chenopodium album (CHEAL)
Assay type: in vivo
Settings: Chenopodium album, post-emergence, 168 h, 280 g ae/ha, 7 DAA, percent reduction in plant size vs untreated control; read-out: Ave. CHEAL
Recorded pest or weed control at 280 g/ha for the following molecules
Please state the figure in %; there is no need to write the unit.

Consider the molecule `Cc1nc2ccccc2n1C(=O)COc1ccc(Cl)cc1Cl` and give its measured pest or weed control at 280 g/ha.
80

And the next one, `Cc1cc(NC(=O)COc2ccc(Cl)cc2Cl)n(C)n1` ?
72.5

And the next one, `C=CCONC(=O)COc1ccc(Cl)cc1Cl` ?
82.5

====

Recorded pest or weed control at 280 g/ha for the following molecules
Test system: Chenopodium album (CHEAL), common lambsquarters
Assay: Postemergence herbicide evaluation, growth of Chenopodium album (CHEAL)
Format: in vivo
Details: Chenopodium album, post-emergence, 168 h, 280 g ae/ha, 7 DAA; read-out: Ave. CHEAL, percent reduction in plant size relative to the untreated control
Please state the figure in %; there is no need to write the unit.

Here are 3 molecules together with their reported answers.
{"molecule": "C[N+](C)(C)CCOC(=O)COc1ccc(Cl)cc1Cl.[Cl-] [Compound E3]", "pest or weed control at 280 g/ha (%)": 68}
{"molecule": "CC(C)CONC(=O)COc1ccc(Cl)cc1Cl [Compound D22]", "pest or weed control at 280 g/ha (%)": 80}
{"molecule": "O=C(COc1ccc(Cl)cc1Cl)Oc1cncnc1 [Compound E14]", "pest or weed control at 280 g/ha (%)": 80}

Continue with the next molecule.
Consider the molecule O=C(COc1ccc(Cl)cc1Cl)Oc1cccnn1 [Compound E2] and give its measured pest or weed control at 280 g/ha.
65

====

Test system: weeds (ABUTH, AMATA, AMBEL, CHEAL, ERICA)
Test: Postemergence herbicide evaluation, overall average % weed control across ABUTH, AMATA, AMBEL, CHEAL, ERICA
Type: in vivo
Conditions: post-emergence, 168 h; 280 g ae/ha, 7 DAA, average over the five weeds; read-out: Overall Ave % Weed Control
Recorded pest or weed control at 280 g/ha for the following compounds

Here are 3 compounds together with their reported answers.
{"smiles-representation": "CCOC(=O)C(=NOC(=O)COc1ccc(Cl)cc1Cl)C(=O)OCC", "experimental-readout": "pest or weed control at 280 g/ha", "experimental-value": "69%"}
{"smiles-representation": "O=C(COc1ccc(Cl)cc1Cl)NOCc1ccccc1", "experimental-readout": "pest or weed control at 280 g/ha", "experimental-value": "70%"}
{"smiles-representation": "O=C(COc1ccc(Cl)cc1Cl)NOc1ccccc1", "experimental-readout": "pest or weed control at 280 g/ha", "experimental-value": "66%"}

Short answer please: pest or weed control at 280 g/ha, weeds (ABUTH, AMATA, AMBEL, CHEAL, ERICA), entry `CS/C(C)=N\OC(=O)COc1ccc(Cl)cc1Cl`
72%

And the next one, `O=C(COc1ccc(Cl)cc1Cl)OCOC(=O)c1ccccc1` ?
71%

And the next one, `N/C(=N\OC(=O)COc1ccc(Cl)cc1Cl)c1ccc(/C(N)=N/OC(=O)COc2ccc(Cl)cc2Cl)cc1` ?
13%

And the next one, `Cn1c(O)c(C(=O)COc2ccc(Cl)cc2Cl)c2ccccc21` ?
61%
